Reported EC50 values follow for various compounds
# measured-on: CFTR G551D mutant (Homo sapiens, UniProt P13569, G551D)
# Construct: expressed in transfected cells; host or cells: HEK293 (reverse transfection with plasmid)
# Sequence (P13569 whole entry G551D): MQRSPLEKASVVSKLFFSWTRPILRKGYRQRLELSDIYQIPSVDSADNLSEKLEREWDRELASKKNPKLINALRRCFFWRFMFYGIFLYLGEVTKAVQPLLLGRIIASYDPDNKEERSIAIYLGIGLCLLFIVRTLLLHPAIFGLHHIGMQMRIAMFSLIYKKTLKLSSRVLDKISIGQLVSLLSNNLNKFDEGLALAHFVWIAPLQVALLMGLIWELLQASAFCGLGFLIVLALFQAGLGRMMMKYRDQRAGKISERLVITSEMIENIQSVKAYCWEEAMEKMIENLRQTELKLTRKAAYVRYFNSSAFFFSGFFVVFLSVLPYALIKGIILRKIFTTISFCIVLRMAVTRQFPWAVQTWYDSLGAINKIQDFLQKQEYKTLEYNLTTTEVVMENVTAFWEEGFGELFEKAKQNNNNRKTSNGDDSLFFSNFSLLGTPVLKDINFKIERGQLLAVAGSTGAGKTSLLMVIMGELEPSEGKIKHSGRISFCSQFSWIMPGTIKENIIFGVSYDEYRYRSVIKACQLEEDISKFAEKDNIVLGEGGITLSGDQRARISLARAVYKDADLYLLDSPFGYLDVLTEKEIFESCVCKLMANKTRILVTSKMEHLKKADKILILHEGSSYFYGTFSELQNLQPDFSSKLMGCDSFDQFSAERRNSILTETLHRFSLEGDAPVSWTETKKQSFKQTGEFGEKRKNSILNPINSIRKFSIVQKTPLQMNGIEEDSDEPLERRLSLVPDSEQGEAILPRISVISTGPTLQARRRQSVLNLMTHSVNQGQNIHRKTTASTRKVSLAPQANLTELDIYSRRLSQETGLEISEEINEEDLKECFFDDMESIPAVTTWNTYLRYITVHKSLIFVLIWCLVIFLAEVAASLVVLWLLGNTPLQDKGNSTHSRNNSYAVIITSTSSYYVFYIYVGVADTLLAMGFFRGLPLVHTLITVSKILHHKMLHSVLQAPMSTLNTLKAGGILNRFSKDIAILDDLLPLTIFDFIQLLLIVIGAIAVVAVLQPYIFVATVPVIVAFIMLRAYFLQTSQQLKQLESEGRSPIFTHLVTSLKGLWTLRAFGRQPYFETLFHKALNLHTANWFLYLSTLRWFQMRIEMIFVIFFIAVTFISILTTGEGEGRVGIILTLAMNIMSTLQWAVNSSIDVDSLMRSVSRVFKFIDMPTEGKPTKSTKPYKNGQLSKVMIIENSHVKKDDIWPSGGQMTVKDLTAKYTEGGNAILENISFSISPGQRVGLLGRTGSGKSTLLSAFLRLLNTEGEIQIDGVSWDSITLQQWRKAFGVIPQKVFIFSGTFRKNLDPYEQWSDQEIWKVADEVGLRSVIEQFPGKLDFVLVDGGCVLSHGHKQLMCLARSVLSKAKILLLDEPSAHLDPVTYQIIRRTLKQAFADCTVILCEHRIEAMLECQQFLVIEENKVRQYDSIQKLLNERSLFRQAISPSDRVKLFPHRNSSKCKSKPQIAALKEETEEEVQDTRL
# test-details: YFP-halide influx assay for the CFTR-G551D mutation
# Type: cell-based
# measurement-parameters: HEK293 cells, forskolin 10.67 μM
endpoint-label: EC50 (nM)

compound	test-value
CC(C)(O)C(=O)Nc1sc(S(=O)(=O)c2nc(C(C)(C)C)ccc2C(F)(F)F)cc1C(N)=O [Compound 426]	61.3
NC(=O)c1cc(S(=O)(=O)N2CCOCC2)sc1NC(=O)c1ccccc1C(F)(F)F [Compound 78]	3070
CN(CC1CC1)S(=O)(=O)c1cc(C(N)=O)c(NC(=O)c2ccccc2F)s1 [Compound 218]	410
NC(=O)c1cc(S(=O)(=O)c2ccc(OC(F)(F)F)cc2)sc1NC(=O)C1CCCO1 (centres unmarked) [Compound 442]	3330
NC(=O)c1cc(S(=O)(=O)c2cc(F)ccc2Cl)sc1NC(=O)CO [Compound 339]	1750
NC(=O)c1cc(S(=O)(=O)N2CCOc3ccccc32)sc1NC(=O)C1(O)CC1 [Compound 242]	163
C[C@H](CO)C(=O)Nc1sc(S(=O)(=O)c2ccc(OC(F)(F)F)cc2)cc1C(N)=O [Compound 382]	873
COCCOc1cc(F)ccc1S(=O)(=O)c1cc(C(N)=O)c(NC(=O)C(C)(C)O)s1 [Compound 282]	3330

----------
# measured-on: CFTR G551D mutant (Homo sapiens, UniProt P13569, G551D)
# Construct: expressed in transfected cells; host or cells: HEK293 (reverse transfection with plasmid)
# test-details: YFP-halide influx assay for the CFTR-G551D mutation
# Type: cell-based
# measurement-parameters: HEK293 cells, forskolin 10.67 μM

compound	measured-on	EC50 [nM]
CC(C)(O)C(=O)Nc1sc(S(=O)(=O)c2ccc(C(F)(F)F)c(F)c2)cc1C(N)=O	CFTR G551D mutant (Homo sapiens, UniProt P13569, G551D)	872
CC(C)[C@H](O)C(=O)Nc1sc(S(=O)(=O)c2ccc(F)cc2C(F)(F)F)cc1C(N)=O	CFTR G551D mutant (Homo sapiens, UniProt P13569, G551D)	502
CC(C)(O)C(=O)Nc1sc(S(=O)(=O)c2ccc3c(c2)OC(F)(F)O3)cc1C(N)=O	CFTR G551D mutant (Homo sapiens, UniProt P13569, G551D)	1760
NC(=O)c1cc(S(=O)(=O)N2CCOCC2)sc1NC(=O)c1ccc(F)cc1O	CFTR G551D mutant (Homo sapiens, UniProt P13569, G551D)	136
CC(C)(O)C(=O)Nc1sc(S(=O)(=O)c2ccccc2C(F)(F)F)cc1C(N)=O	CFTR G551D mutant (Homo sapiens, UniProt P13569, G551D)	191
CC(CO)C(=O)Nc1sc(S(=O)(=O)c2ccc(F)cc2)cc1C(N)=O (centres unmarked)	CFTR G551D mutant (Homo sapiens, UniProt P13569, G551D)	3080
CC(C)(O)C(=O)Nc1sc(S(=O)(=O)c2cc(Cl)cnc2C(F)(F)F)cc1C(N)=O	CFTR G551D mutant (Homo sapiens, UniProt P13569, G551D)	2190
CC(C)Oc1cccc(S(=O)(=O)c2cc(C(N)=O)c(NC(=O)C(C)(C)O)s2)c1	CFTR G551D mutant (Homo sapiens, UniProt P13569, G551D)	2000
CC(C)Oc1ccc(S(=O)(=O)c2cc(C(N)=O)c(NC(=O)C(C)(C)O)s2)c(C(F)(F)F)c1	CFTR G551D mutant (Homo sapiens, UniProt P13569, G551D)	3160
CC(C)(O)C(=O)Nc1sc(S(=O)(=O)c2ccc(C(F)(F)F)cn2)cc1C(N)=O	CFTR G551D mutant (Homo sapiens, UniProt P13569, G551D)	491
CN(CC1CC1)S(=O)(=O)c1cc(C(N)=O)c(NC(=O)c2cc[nH]n2)s1	CFTR G551D mutant (Homo sapiens, UniProt P13569, G551D)	206
CC(C)c1ccccc1S(=O)(=O)c1cc(C(N)=O)c(NC(=O)C(C)(C)O)s1	CFTR G551D mutant (Homo sapiens, UniProt P13569, G551D)	110
Cc1cc(C(F)(F)F)cc(S(=O)(=O)c2cc(C(N)=O)c(NC(=O)C(C)(C)O)s2)c1	CFTR G551D mutant (Homo sapiens, UniProt P13569, G551D)	1500
CC(C)(O)C(=O)Nc1sc(S(=O)(=O)c2cc(Cl)ccc2F)cc1C(N)=O	CFTR G551D mutant (Homo sapiens, UniProt P13569, G551D)	1670
CC(C)(O)C(=O)Nc1sc(S(=O)(=O)c2ncccc2C(F)(F)F)cc1C(N)=O	CFTR G551D mutant (Homo sapiens, UniProt P13569, G551D)	4920
CC1CN(S(=O)(=O)c2cc(C(N)=O)c(NC(=O)c3ccccc3C(F)(F)F)s2)C(C)(C)CO1 (centres unmarked)	CFTR G551D mutant (Homo sapiens, UniProt P13569, G551D)	3330
CC(C)Oc1ccc(S(=O)(=O)c2cc(C(N)=O)c(NC(=O)C(C)(C)O)s2)c(F)c1	CFTR G551D mutant (Homo sapiens, UniProt P13569, G551D)	828
CC(C)(C)C(O)C(=O)Nc1sc(S(=O)(=O)c2ccc(F)cc2)cc1C(N)=O (centres unmarked)	CFTR G551D mutant (Homo sapiens, UniProt P13569, G551D)	771
CC(CO)C(=O)Nc1sc(S(=O)(=O)c2ccc(F)cc2Cl)cc1C(N)=O (centres unmarked)	CFTR G551D mutant (Homo sapiens, UniProt P13569, G551D)	635
NC(=O)c1cc(S(=O)(=O)N2CCC(F)(F)CC2)sc1NC(=O)C1(O)CCC1	CFTR G551D mutant (Homo sapiens, UniProt P13569, G551D)	541
CC(C)(O)C(=O)Nc1sc(S(=O)(=O)c2ccc(C(C)(C)C)cn2)cc1C(N)=O	CFTR G551D mutant (Homo sapiens, UniProt P13569, G551D)	1300
NC(=O)c1cc(S(=O)(=O)c2ccccc2OC(F)(F)F)sc1NC(=O)CO	CFTR G551D mutant (Homo sapiens, UniProt P13569, G551D)	377
NC(=O)c1cc(S(=O)(=O)c2ccc(F)cc2)sc1NC(=O)C1CCCCC1O (centres unmarked)	CFTR G551D mutant (Homo sapiens, UniProt P13569, G551D)	1660
